Source of measurements: patent US10654939

Listed below: koff values for each entry.
Target: T1, recombinant human CD40 (ECD)-his (human, UniProt P25942 21-193)
T1 construct: Bought protein; also called hCD40(ECD)-his; TNFRSF5
T1 sequence (P25942 21-193): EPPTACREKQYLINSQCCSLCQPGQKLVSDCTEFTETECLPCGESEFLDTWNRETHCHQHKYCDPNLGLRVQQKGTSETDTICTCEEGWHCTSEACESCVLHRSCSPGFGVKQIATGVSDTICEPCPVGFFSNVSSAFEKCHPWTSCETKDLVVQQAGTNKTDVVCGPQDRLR
Test: SPR (Biacore 8K), hCD40(ECD)-his coupled to chip, antibody injected

[
  {
    "Binder": "13A2-VH0VL0 (antibody, human IgG2, kappa, V domains shown, Humanized, human IgG2/kappa) VH: QVQLQESGPGLVKPSDTLSLTCAVSGYSITTNYYWNWIRQPPGKGLEWIGYINYDGSNNYNPSLKNRVTMSVDTSKNQFSLKLSSVTAVDTAVYYCARLDYWGQGTLVTVSS VL: DVVMTQSPLSLPVTLGQPASISCRSSQSLENSNGNTFLNWFQQRPGQSPRRLIYKVSNRFSGVPDRFSGSGSGTDFTLKISRVEAEDVGVYYCLQVTHVPFTFGQGTKLEIKR",
    "Units": "s⁻¹",
    "koff": 0.0114
  },
  {
    "Binder": "13A2-VH2VL3 (antibody, human IgG2, kappa, V domains shown, Humanized, human IgG2/kappa) VH: QVQLQESGPGLVKPSDTLSLTCAVSGYSITTNYYWNWIRQPPGKGLEWMGYINYDGSNNYNPSLKNRITISVDTSKNQFSLKLSSVTAVDTAVYYCARLDYWGQGTLVTVSS VL: DVVLTQSPLSLPVTLGQPASISCRSSQSLENSNGNTFLNWFQQRPGQSPRLLIYKVSNRFSGVPDRFSGSGSGTDFTLKISRVEAEDVGVYFCLQVTHVPFTFGSGTKLEIKR",
    "Units": "s⁻¹",
    "koff": 0.00261
  },
  {
    "Binder": "7B4-VH3VL3 (antibody, human IgG2, V domains shown, Humanized, human IgG2/kappa) VH: QVQLQESGPGLVKPSDTLSLTCAVSGYSITTNYYWNWIRQPPGNKLEWMGYIKYDGSNNYNPSLKNRITISVDTSKNQFSLKLSSVTAVDTAVYYCARLDYWGQGTLVTVSS VL: DVVLTQSPLSLPVTLGQPASISCRSSQSLENSNGNTFLNWFQQRPGQSPRLLIYKVSNRFSGVPDRFSGSGSGTDFTLKISRVEAEDVGVYFCLQVTHVPFTFGSGTKLEIKR",
    "Units": "s⁻¹",
    "koff": 0.00488
  },
  {
    "Binder": "13A2-VH3VL3 (antibody, human IgG2, kappa, V domains shown, Humanized, human IgG2/kappa) VH: QVQLQESGPGLVKPSDTLSLTCAVSGYSITTNYYWNWIRQPPGNKLEWMGYINYDGSNNYNPSLKNRITISVDTSKNQFSLKLSSVTAVDTAVYYCARLDYWGQGTLVTVSS VL: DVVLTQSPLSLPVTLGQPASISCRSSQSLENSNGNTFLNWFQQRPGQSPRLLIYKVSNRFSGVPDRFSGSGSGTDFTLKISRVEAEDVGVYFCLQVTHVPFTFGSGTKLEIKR",
    "Units": "s⁻¹",
    "koff": 0.00459
  },
  {
    "Binder": "13A2-VH2VL2 (antibody, human IgG2, kappa, V domains shown, Humanized, human IgG2/kappa) VH: QVQLQESGPGLVKPSDTLSLTCAVSGYSITTNYYWNWIRQPPGKGLEWMGYINYDGSNNYNPSLKNRITISVDTSKNQFSLKLSSVTAVDTAVYYCARLDYWGQGTLVTVSS VL: DVVLTQSPLSLPVTLGQPASISCRSSQSLENSNGNTFLNWFQQRPGQSPRLLIYKVSNRFSGVPDRFSGSGSGTDFTLKISRVEAEDVGVYYCLQVTHVPFTFGQGTKLEIKR",
    "Units": "s⁻¹",
    "koff": 0.00171
  }
]
